Source listed as patent US10851064B2.

Molecular target: ACSS2 (Homo sapiens, UniProt Q9NR19)
Sequence (Q9NR19 whole entry): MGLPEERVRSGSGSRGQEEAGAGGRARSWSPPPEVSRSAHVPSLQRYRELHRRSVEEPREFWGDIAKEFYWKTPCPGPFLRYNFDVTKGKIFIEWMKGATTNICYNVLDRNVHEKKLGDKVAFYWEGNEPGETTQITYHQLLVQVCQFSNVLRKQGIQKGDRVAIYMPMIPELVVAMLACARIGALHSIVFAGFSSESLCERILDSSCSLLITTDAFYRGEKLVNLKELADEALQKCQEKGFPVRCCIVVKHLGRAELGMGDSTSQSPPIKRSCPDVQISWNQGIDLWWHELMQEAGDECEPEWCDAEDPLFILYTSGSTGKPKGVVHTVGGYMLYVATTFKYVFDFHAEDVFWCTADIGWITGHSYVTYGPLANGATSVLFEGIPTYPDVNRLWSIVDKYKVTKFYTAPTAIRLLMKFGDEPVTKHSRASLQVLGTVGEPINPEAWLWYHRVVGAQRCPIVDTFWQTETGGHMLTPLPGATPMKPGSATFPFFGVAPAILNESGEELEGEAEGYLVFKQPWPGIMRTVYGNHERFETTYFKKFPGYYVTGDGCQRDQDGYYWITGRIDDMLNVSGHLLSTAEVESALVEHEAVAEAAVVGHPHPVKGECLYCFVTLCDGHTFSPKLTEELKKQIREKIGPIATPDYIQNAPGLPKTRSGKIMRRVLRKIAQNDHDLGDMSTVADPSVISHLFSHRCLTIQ
Experiment: cell-based
pIC50: −log10 of the molar value.
Entries and their pIC50 values follow.

In the examples that follow, each entry is paired with its recorded pIC50.
CC1=NN(c2cccc(C(=O)O)c2)C(=O)C1C(=O)Nc1cccc(-c2ccco2)c1 (centres unmarked) [compound 159]
< 7.00
CC1=NN(c2ccc(C(F)(F)F)cc2)C(=O)C1C(=O)Nc1cccc(C(C)(F)F)c1 (centres unmarked) [compound 264]
7.30 to 9.30
CC1=NN(c2cccc(C(=O)OC(C)C)c2)C(=O)C1C(=O)Nc1cccc(-c2ccco2)c1 (centres unmarked) [compound 237]
< 7.00
CC1=NN(c2ccccc2)C(=O)C1C(=O)Nc1cccc(C(C)(F)F)c1 (centres unmarked) [compound 141]
7.30 to 9.30
CC1=NN(c2cccc(S(=O)(=O)N(C)C)c2)C(=O)C1C(=O)Nc1cccc(C(C)(F)F)c1 (centres unmarked) [compound 252]
7.00 to 7.30

For reference, reported pIC50 for COC(=O)c1cccc(N2N=C(C)C(C(=O)Nc3cccc(-c4ncco4)c3)C2=O)c1 (centres unmarked) [compound 259] stands at < 7.00

For reference, reported pIC50 for COC(=O)c1cccc(N2N=C(C)C(C(=O)Nc3cccc(-c4ncc[nH]4)c3)C2=O)c1 (centres unmarked) [compound 167] stands at < 7.00

For reference, reported pIC50 for CC1=NN(c2cccc(C(F)(F)F)c2)C(=O)C1C(=O)Nc1cccc(C(C)(F)F)c1 (centres unmarked) [compound 271] stands at 7.30 to 9.30

====

Biological target: ACSS2 (Homo sapiens, UniProt Q9NR19)
Experiment: biochemical
assay-metric: IC50

In the examples that follow, each entry is paired with its recorded IC50.
CCC(F)(F)c1cccc(NC(=O)C2C(=O)N(c3ccc(OC)cc3)N=C2C)c1 (centres unmarked)
0.01 to 6 nM
CC1=NN(c2ccccc2)C(=O)C1C(=O)Nc1cccnc1 (centres unmarked)
1000 to 100000 nM
CC1=NN(c2ccc(OC(F)F)cc2)C(=O)C1C(=O)Nc1cccc2cc[nH]c12 (centres unmarked)
100 to 1000 nM
CC1=NN(c2ccc(C(F)(F)F)cc2)C(=O)C1C(=O)Nc1ccccc1 (centres unmarked)
1000 to 100000 nM
CC1=NN(c2ccc(OC(F)F)c(-c3cccnc3)c2)C(=O)C1C(=O)Nc1cccc(C(C)(F)F)c1 (centres unmarked)
0.01 to 6 nM
CC1=NN(c2cccc(C(F)(F)F)c2)C(=O)C1C(=O)Nc1cccc(C(C)(F)F)c1 (centres unmarked)
0.01 to 6 nM
CC1=NN(c2cccc(C(F)(F)F)c2)C(=O)C1C(=O)Nc1cccc(-c2cnccn2)c1 (centres unmarked)
0.01 to 6 nM

// next item, IC50 requested
For reference, reported IC50 for COC(=O)c1cccc(N2N=C(C)C(C(=O)Nc3cccc(-c4ccco4)c3)C2=O)c1 (centres unmarked) stands at 0.01 to 6 nM

====

Biological target: ACSS2 (Homo sapiens, UniProt Q9NR19)
Assay: biochemical
Entries and their IC50 values follow.

In the examples that follow, each entry is paired with its recorded IC50.
CC1=NN(c2ccc(OC3CCC3)cc2)C(=O)C1C(=O)Nc1cccc(C(C)(F)F)c1 (centres unmarked)
0.01 to 6 nM
CC1=NN(c2ccccc2)C(=O)C1C(=O)Nc1nccn1C (centres unmarked)
1000 to 100000 nM
CCc1cccc(NC(=O)C2C(=O)N(c3ccc(OC(C)C)cc3)N=C2C)c1 (centres unmarked)
6 to 100 nM

For reference, reported IC50 for CC1=NN(c2ccc(OC(F)F)cc2)C(=O)C1C(=O)N(C)c1cc(F)cc(Cl)c1 (centres unmarked) stands at 100 to 1000 nM

For reference, reported IC50 for [2H]C([2H])([2H])Oc1ccc(N2N=C(C)C(C(=O)Nc3cccc(C(C)(F)F)c3)C2=O)cc1 (centres unmarked) stands at 0.01 to 6 nM

For reference, reported IC50 for CC1=NN(c2ccccc2)C(=O)C1C(=O)NC1CCOC1 (centres unmarked) stands at > 100000 nM

For reference, reported IC50 for CC1=NN(c2ccc(S(=O)(=O)N(C)C)cc2)C(=O)C1C(=O)Nc1cccc(-c2cnccn2)c1 (centres unmarked) stands at 6 to 100 nM

For reference, reported IC50 for CCc1cccc(NC(=O)C2C(=O)N(c3ccccc3)N=C2c2ccccn2)c1 (centres unmarked) stands at 1000 to 100000 nM
